B1: ATXN2 peptide 911-926 (Ataxin-2), 16-mer library wild type / PABPC1 PABC (PABPC1 PABC domain, residues 544-623) (parent)
chain 1: KSTLNPNAKEFNPRSF
chain 2: PLTASMLASAPPQEQKQMLGERLFPLIQAMHPTLAGKITGMLLEIDNSELLHMLESPESLRSKVDEAVAVLQAHQAKEAA

- Variants of: B1
- assayExplanation: proteomic peptide phage display deep mutational scan (ProP-PD DMS): M13 P8 16-mer library selected against immobilised GST-tagged bait for four days (rounds), NGS of the eluted pools per day and pseudo-replica
- assayContext: with PABPC1 PABC (PABPC1 PABC domain, residues 544-623); bait immobilised on MaxiSorp plates (10 µg), library pre-cleared on GST, 2 h binding at 4 °C, five washes; one round per day, days 1-4; value from days 2 and 3; scale: average fractional NGS count over selection days 2 and 3
screen value values for the variants below.
readout: screen value

- mutationAnnotation: "chain 1 E10V"
  experimentalResult: 0.000349
- mutationAnnotation: "chain 1 S15I"
  experimentalResult: 0.000221
- mutationAnnotation: "chain 1 N12F"
  experimentalResult: 0.000678
- mutationAnnotation: "chain 1 K9E"
  experimentalResult: 0.00113
- mutationAnnotation: "chain 1 N7G"
  experimentalResult: 0
- mutationAnnotation: "chain 1 N12M"
  experimentalResult: 0.00106
- mutationAnnotation: "chain 1 T3M"
  experimentalResult: 0.000543
- mutationAnnotation: "chain 1 R14A"
  experimentalResult: 0.00158
- mutationAnnotation: "chain 1 S2P"
  experimentalResult: 0.00164
- mutationAnnotation: "chain 1 S15W"
  experimentalResult: "5.73e-05"
- mutationAnnotation: "chain 1 P13N"
  experimentalResult: 0.000178

Each recorded value in this set is attributed to paper PMC12102759.
